Recorded measurements of EC50, one per entry
subject.of.test: SFRP-1 (Homo sapiens)
Sequence (Q8N474 32-314): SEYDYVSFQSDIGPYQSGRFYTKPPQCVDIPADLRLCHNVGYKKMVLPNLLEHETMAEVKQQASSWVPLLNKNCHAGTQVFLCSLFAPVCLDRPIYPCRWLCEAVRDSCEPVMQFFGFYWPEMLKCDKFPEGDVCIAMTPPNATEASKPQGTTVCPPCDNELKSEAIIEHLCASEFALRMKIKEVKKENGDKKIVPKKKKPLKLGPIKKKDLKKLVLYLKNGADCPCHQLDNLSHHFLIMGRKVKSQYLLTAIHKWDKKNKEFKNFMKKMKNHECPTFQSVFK
assay.remarks: Cell-based assay for in vitro measurement of SFRP-1/SARP2 antagonist activity (U2OS cells co-transfected with 16x TCF-tk-Luciferase reporter, Wnt and hSFRP-1);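 further: U2OS cells co-transfected with a TCF-tk luciferase reporter, a Wnt vector, hSFRP-1 or empty vector and CMV-βgal, luciferase luminescence read in cell lysates alongside βgal activity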
Entry rule: numbers only, all in nM.

Below are worked cases with known answers.
O=C(O)CCC(=O)N1CCC(CNS(=O)(=O)c2cc(S(=O)(=O)c3ccccc3)ccc2C(F)(F)F)CC1 : 636
CN(CCNS(=O)(=O)c1cc(S(=O)(=O)c2ccccc2)ccc1C(F)(F)F)C(=O)c1ccc(CBr)cc1 : 1140
C[C@@H](NS(=O)(=O)c1cc(S(=O)(=O)c2ccccc2)ccc1Cl)[C@H](O)c1ccccc1 (relative stereo) : 8900
CN(CCNS(=O)(=O)c1cc(S(=O)(=O)c2ccccc2)ccc1C(F)(F)F)C(=O)C(C)(C)C : 1650
CC(C)(C)OC(=O)N1C[S+]([O-])C[C@H]1C(=O)N1CCC(NS(=O)(=O)c2cc(S(=O)(=O)c3ccccc3)ccc2C(F)(F)F)CC1 (stereo partly shown) : 78

// query EC50 value for entry `O=S(=O)(NC1CCN(CCN2CCOCC2)CC1)c1cc(S(=O)(=O)c2ccccc2)ccc1C(F)(F)F` 898

Again, but for `CC(C)(C)OC(=O)N1CC[C@H](NS(=O)(=O)c2cc(S(=O)(=O)c3ccccc3)ccc2C(F)(F)F)C1` 534

* * *

subject.of.test: UniProt Q8N474
Structures can show the parent of a compound that is named as a salt.
quantity: pIC50
pIC50 is defined as minus the log10 of a concentration measured in mol/L.

CC(C)c1ccc(S(=O)(=O)c2ccc(C(C)(C)C)cc2)cc1S(=O)(=O)NC1CCOCC1 [Example 437] : 5.30
O=S(=O)(N[C@@H]1CCCNC1)c1cc(S(=O)(=O)c2ccccc2)ccc1C(F)(F)F [Example 791] : 5.52
CNCCNS(=O)(=O)c1cc(S(=O)(=O)c2ccccc2)ccc1C(F)(F)F [Example 799, hydrochloride] : 5.10
N#Cc1ccc(C(=O)N2CCC(NS(=O)(=O)c3cc(S(=O)(=O)c4ccccc4)ccc3Cl)CC2)cc1 [Example 657] : 5.62

// query pIC50 value for entry O=S(=O)(NC1CCOCC1)c1cc(S(=O)(=O)c2ccc(F)cc2)ccc1C(F)(F)F [Example 817] 6.52

Again, but for O=C(O)c1cccc(S(=O)(=O)N2CCC(CNS(=O)(=O)c3cc(S(=O)(=O)c4ccccc4)ccc3C(F)(F)F)CC2)c1 [Example 904] 7.22

Again, but for CC(C)c1cc(C(C)C)c(S(=O)(=O)c2ccc(F)cc2)cc1S(=O)(=O)NCCC1CCOCC1 [Example 630] 5.40

Again, but for CC(C)c1ccc(S(=O)(=O)c2cccc(C(F)(F)F)c2)cc1S(=O)(=O)NCCc1ccccn1 [Example 508] 5.89

Again, but for CC(C)(C)OC(=O)N1CCC(NS(=O)(=O)c2cc(S(=O)(=O)c3ccc(F)cc3)ccc2C(F)(F)F)CC1 [Example 818] 6.52

Again, but for Cc1ccc(S(=O)(=O)c2ccccc2)cc1S(=O)(=O)NC1CCN(S(C)(=O)=O)CC1 [Example 478] 5.89

Again, but for O=S(=O)(NCCc1ccncc1)c1cc(S(=O)(=O)c2ccccc2)ccc1Cl [Example 641] 5.96

Again, but for CC(C)c1ccc(S(=O)(=O)c2ccccc2)cc1S(=O)(=O)NCCc1ccccn1 [Example 671] 6.40

Again, but for N#CCCNS(=O)(=O)c1cc(S(=O)(=O)c2ccccc2)ccc1Cl [Example 643] 5.62

Again, but for O=C(O)c1cccc(S(=O)(=O)Nc2ccc(CNS(=O)(=O)c3cc(S(=O)(=O)c4ccccc4)ccc3C(F)(F)F)cc2)c1 [Example 963] 6.52

Again, but for O=C(O)c1ccc(CCNS(=O)(=O)c2cc(S(=O)(=O)c3ccccc3)ccc2C(F)(F)F)cc1 [Example 877] 7.52
